All figures here come from paper PMC12748989.

tested on: PBMC; conditions: 12.5 µM
Parameter Average (percentage cell inhibition), Mastoparan PBMC: see the listing below.
Please give a number only; it is taken to be in %.

CC[C@H](C)[C@H](N)C(=O)N[C@@H](CC(N)=O)C(=O)N[C@@H](CC(C)C)C(=O)N[C@@H](CCCCN)C(=O)N[C@@H](C)C(=O)N[C@@H](CC(C)C)C(=O)N[C@H](C(=O)N[C@@H](C)C(=O)N[C@@H](CC(C)C)C(=O)N[C@@H](C)C(=O)N[C@@H](CCCCN)C(=O)N[C@@H](CCCCN)C(=O)N[C@H](C(=O)N[C@@H](CC(C)C)C(N)=O)[C@@H](C)CC)[C@@H](C)CC ... 39.466
CC[C@H](C)[C@H](N)C(=O)N[C@@H](Cc1c[nH]c2ccccc12)C(=O)N[C@@H](CC(C)C)C(=O)N[C@@H](CCCCN)C(=O)N[C@@H](C)C(=O)N[C@@H](CC(C)C)C(=O)N[C@@H](C)C(=O)N[C@@H](C)C(=O)N[C@@H](CC(C)C)C(=O)N[C@@H](C)C(=O)N[C@@H](CCCCN)C(=O)N[C@@H](CCCCN)C(=O)N[C@H](C(=O)N[C@@H](CC(C)C)C(N)=O)[C@@H](C)CC ... 92.9669

Shifting focus to the molecule that follows.
Summary line: CC[C@H](C)[C@H](N)C(=O)N[C@@H](CC(N)=O)C(=O)N[C@@H](CC(C)C)C(=O)N[C@@H](CCCCN)C(=O)N[C@@H](C)C(=O)N[C@@H](CCC(=O)O)C(=O)N[C@@H](C)C(=O)N[C@@H](C)C(=O)N[C@@H](CC(C)C)C(=O)N[C@@H](C)C(=O)N[C@@H](CCCCN)C(=O)N[C@@H](CCCCN)C(=O)N[C@H](C(=O)N[C@@H](CC(C)C)C(N)=O)[C@@H](C)CC , PBMC, reported Average (percentage cell inhibition), Mastoparan PBMC = 3.211

* * *

system: PBMC; conditions: 12.5 µM
Some molecules, each annotated with its measured Average (percentage cell inhibition), Mastoparan PBMC.
Numbers only; they are read as %.

CC[C@H](C)[C@H](N)C(=O)N[C@@H](CC(N)=O)C(=O)N[C@@H](CC(C)C)C(=O)N[C@@H](CCCCN)C(=O)N[C@@H](C)C(=O)N[C@@H](CC(C)C)C(=O)N[C@@H](C)C(=O)N[C@@H](C)C(=O)N[C@@H](Cc1c[nH]c2ccccc12)C(=O)N[C@@H](C)C(=O)N[C@@H](CCCCN)C(=O)N[C@@H](CCCCN)C(=O)N[C@H](C(=O)N[C@@H](CC(C)C)C(N)=O)[C@@H](C)CC [W9] ... 6.531

Please turn your attention to the following entry.
Sample CC[C@H](C)[C@H](NC(=O)[C@H](CCCCN)NC(=O)[C@H](CCCCN)NC(=O)[C@H](C)NC(=O)[C@H](CC(C)C)NC(=O)[C@H](C)NC(=O)[C@H](C)NC(=O)[C@H](CC(C)C)NC(=O)[C@H](C)NC(=O)[C@H](CCCCN)NC(=O)[C@H](CC(C)C)NC(=O)[C@H](CC(N)=O)NC(=O)CN)C(=O)N[C@@H](CC(C)C)C(N)=O [G1] ; Average (percentage cell inhibition), Mastoparan PBMC observed: 6.436
